- system_name: mutEGFR (D770_N771insSVD) (Homo sapiens, UniProt P00533, DUP768-770)
- Construct: GST-EGFR #3 (SVD between D770 and N771); made in house; host or cells: Sf9 insect cells (baculovirus)
- Sequence (P00533 with tags, fused parts or gaps DUP768-770): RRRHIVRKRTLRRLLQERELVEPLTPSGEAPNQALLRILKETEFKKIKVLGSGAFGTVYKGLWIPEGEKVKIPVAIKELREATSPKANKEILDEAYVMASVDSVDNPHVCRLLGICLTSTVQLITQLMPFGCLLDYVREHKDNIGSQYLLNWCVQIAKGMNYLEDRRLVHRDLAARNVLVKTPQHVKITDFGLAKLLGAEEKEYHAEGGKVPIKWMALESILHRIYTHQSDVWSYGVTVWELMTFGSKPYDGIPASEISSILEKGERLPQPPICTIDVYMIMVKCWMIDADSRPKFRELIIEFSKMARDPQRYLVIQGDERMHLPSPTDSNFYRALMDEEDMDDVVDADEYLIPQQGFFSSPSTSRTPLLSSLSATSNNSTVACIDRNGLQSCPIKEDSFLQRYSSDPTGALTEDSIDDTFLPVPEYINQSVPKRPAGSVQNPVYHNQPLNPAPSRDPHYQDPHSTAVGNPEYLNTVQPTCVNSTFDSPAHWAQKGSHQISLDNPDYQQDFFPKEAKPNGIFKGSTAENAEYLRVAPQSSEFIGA
- experiment_summary: Exon20-Mutant-EGFR (D770_N771insSVD) kinase assay (TR-FRET)
- Format: biochemical
- condition_details: mutEGFR (D770_N771insSVD) kinase assay IC50, Table 2a; D770_N771insSVD; 2 mM ATP
Task for the reader: assign each of the following compounds its reported IC50.
Provide a numeric answer, followed by its unit.

In: May I ask what IC50 has been recorded for `CCNC/C=C/C(=O)N1CCn2nc(-c3ccc(F)cc3)c(-c3ccncc3)c2C1` ?
Out: 4.15 nM

In: Now try C=CC(=O)N1Cc2c(-c3ccncc3)c(-c3ccc(OC)cc3F)nn2CC1C (racemic) .
Out: 0.502 nM

In: Follow-up item: `Cc1c[nH]c2nccc(-c3c(-c4ccc5cc(F)sc5c4)nn4c3CN(C(=O)/C=C/CN(C)C)CC4)c12`
Out: 30 nM

In: Now this one: `CN(C)C/C=C/C(=O)N1CCn2nc(-c3ccc(F)cc3)c(-c3ccnc(NC(=O)C4CC4)c3)c2C1`
Out: 0.393 nM

In: What about this compound? `CCc1cc(-c2nn3c(c2-c2ccncc2)CN(C(=O)/C=C/CN(C)C)CC3)ccc1Cl`
Out: 1.31 nM

In: Same thing, different compound: `C=CC(=O)N1CCn2nc(-c3ccc(OC)cc3F)c(-c3ccncc3)c2C1`
Out: 0.739 nM

In: Another compound to check: `CN(C)C/C=C/C(=O)N1CCn2nc(-c3ccc(C(F)(F)F)cc3)c(-c3ccncc3)c2C1`
Out: 1.37 nM

###

Assignment: determine reported pIC50 for the given molecules.
- system_name: mutEGFR (D770_N771insNPG, T790) (Homo sapiens, UniProt P00533, INS770NPG/T790M)
- Construct: exact insNPG construct not described; in-house EGFR proteins were N-terminal GST fusions from baculovirus/insect cells (borders R669-A1210 given only for WT, insSVD, insASV)
- Sequence (P00533 with tags, fused parts or gaps INS770NPG/T790M limits assumed): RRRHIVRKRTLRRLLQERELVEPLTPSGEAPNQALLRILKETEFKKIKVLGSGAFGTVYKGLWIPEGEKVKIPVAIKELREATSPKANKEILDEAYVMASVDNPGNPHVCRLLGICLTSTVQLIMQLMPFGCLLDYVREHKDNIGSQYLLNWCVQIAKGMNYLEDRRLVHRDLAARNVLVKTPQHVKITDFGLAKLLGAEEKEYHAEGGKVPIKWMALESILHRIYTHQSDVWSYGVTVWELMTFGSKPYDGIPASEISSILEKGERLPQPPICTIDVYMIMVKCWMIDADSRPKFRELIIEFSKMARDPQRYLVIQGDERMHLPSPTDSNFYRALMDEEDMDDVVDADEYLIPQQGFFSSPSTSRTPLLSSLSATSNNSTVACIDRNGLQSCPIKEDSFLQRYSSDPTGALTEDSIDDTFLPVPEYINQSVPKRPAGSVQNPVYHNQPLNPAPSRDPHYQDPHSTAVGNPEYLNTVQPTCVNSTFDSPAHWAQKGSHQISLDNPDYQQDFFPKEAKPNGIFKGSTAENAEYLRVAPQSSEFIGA
- experiment_summary: mutEGFR (D770_N771insNPG, T790) kinase assay
- Format: biochemical
- condition_details: Table 2a, D770_N771insNPG
pIC50 is defined as minus the log10 of a concentration measured in mol/L.

In: Param item = Cc1c[nH]c2nccc(-c3c(-c4ccc(C(F)(F)F)cc4)nn4c3CN(C(=O)/C=C/CN(C)C)CC4)c12 [Example 58] ; retrieve measured pIC50.
Out: 5.89

In: // repeat for CN(C)C/C=C/C(=O)N1Cc2c(-c3ccncc3)c(-c3ccc(Cl)cc3)nn2CC1(C)C [Example 217] and report
Out: 7.22

In: Could you do the same for O=C(C#CC1CCCN1)N1CCn2nc(-c3ccc(F)cc3)c(-c3ccncc3)c2C1 (racemic) [Example 88] , please?
Out: 7.80

In: How about O=C(C#CCN1CCOCC1)N1CCn2nc(-c3ccc(Cl)cc3F)c(-c3ccncc3)c2C1 [Example 85] ?
Out: 8.61

In: Subsequent entry: COc1ccc(-c2nn3c(c2-c2ccncc2)CN(C(=O)/C=C/CN(C)C)CC3)c(F)c1 [Example 160]
Out: 8.18

In: Now this one: C=CC(=O)N1CCn2nc(-c3cc(Cl)ccc3F)c(-c3ccncc3)c2C1 [Example 132]
Out: 8.88

In: Also need C=CC(=O)N1CCn2nc(Nc3ccc(C(F)(F)F)cc3)c(-c3ccncc3)c2C1 [Example 97] , thanks.
Out: 5.42

In: Next molecule: CN(C)C/C=C/C(=O)N1CCn2nc(-c3ccc(Cl)cc3F)c(-c3ccnc4[nH]ccc34)c2C1 [Example 103]
Out: 7.60

###

Provide the recorded IC50 for the entries that follow.
- System: BA/F3 (insSVD) cells
- experiment_summary: Ba/F3-EGFR-insSVD cell survival assay (Cell Titer-Glo)
- Format: cell-based
- condition_details: Mus musculus, BaF3, 48 h, Table 3a, cell survival, Cell Titer-Glo, with 10 ng/ml EGF, without IL-3
- Description: Cellular Data Description (WT, insSVD, insSVD T790M) 293T cells from ATCC were transfected with pBABEpuro expression constructs for WT EGFR or EGFR-insSVD, or EGFR-insSVD T790M, and pCL-Eco packaging vector using Fugene-6 transfection reagent from Promega. […] Cell viability was measured by adding 20 μL of Cell Titer-Glo Luminescent Cell Viability Reagent diluted 1:3 in PBS. […] Plates were incubated in low light conditions for 8-10 min and luminescence was measured.
Just the number in nM, nothing appended.

In: # query: IC50 of entry `CN(C)C/C=C/C(=O)N1CCn2nc(-c3ccc(SC(F)(F)F)cc3)c(-c3ccncc3)c2C1`
Out: 1990

In: Would you mind doing `Cc1cc(-c2nn3c(c2-c2ccncc2)CN(C(=O)/C=C/CN(C)C)C(C)(C)C3)ccc1Cl` as well?
Out: 367

In: How about C=CC(=O)N1Cc2c(-c3ccncc3)c(-c3ccc(Cl)cc3F)nn2CC1C (centres unmarked) ?
Out: 5.94

In: Check `CN(C)C/C=C/C(=O)N1CCn2nc(-c3ccc(OC(F)(F)F)cc3)c(-c3ccncc3)c2C1` too.
Out: 607

In: Please give the result for `C=CC(=O)N1Cc2c(-c3ccncc3)c(-c3ccc(Cl)cc3)nn2C[C@H]1C` too.
Out: 23.7

In: Now the same for `C=CC(=O)N1CCn2nc(-c3ccc(C(F)(F)F)nc3)c(-c3ccncc3)c2C1`
Out: 149

In: What about this compound? `C[C@H]1Cn2nc(-c3cccc(C#N)c3)c(-c3ccncc3)c2CN1C(=O)/C=C/CN(C)C`
Out: 44.6

In: Please do the same for C=CC(=O)N1CCn2nc(-c3ccc4cc[nH]c4c3)c(-c3ccncc3)c2C1C (racemic) as well.
Out: 97.8

###

- system_name: mutEGFR (D770_N771insSVD) (Homo sapiens, UniProt P00533, DUP768-770)
- Construct: GST-EGFR #3 (SVD between D770 and N771); made in house; host or cells: Sf9 insect cells (baculovirus)
- experiment_summary: Exon20-Mutant-EGFR (D770_N771insSVD) kinase assay (TR-FRET)
- Type: biochemical
- condition_details: mutEGFR (D770_N771insSVD) kinase assay IC50, Table 2a; D770_N771insSVD; 2 mM ATP
readout_kind: IC50 (nM)
Give just the number in nM; leave the unit off.

In: Record request: IC50 value, item `CN(C)C/C=C/C(=O)N1CCn2nc(-c3ccc(C(F)(F)F)c(F)c3)c(-c3ccncc3)c2C1`
Out: 3.2

In: Please do the same for `CCN(C)C/C=C/C(=O)N1CCn2nc(-c3ccc(F)cc3)c(-c3ccncc3)c2C1` as well.
Out: 0.907

In: Here is the next compound: Cc1c[nH]c2nccc(-c3c(-c4ccc(C(F)(F)F)cc4)nn4c3C(C)N(C(=O)/C=C/CN(C)C)CC4)c12 (single isomer, unassigned; isomer 2) [Example 253]
Out: 247

In: Now the compound `C=CC(=O)N1CCn2nc(-c3ccc(Cl)cc3C)c(-c3ccncc3)c2C1`
Out: 0.384

In: Same again, this time with `C=CC(=O)N1CCn2nc(-c3ccc(C(F)(F)F)cc3)c(-c3ccnc4[nH]c(C)c(C)c34)c2C1`
Out: 281

In: Query `C=CC(=O)N1CCn2nc(-c3ccc(C#N)cc3)c(-c3ccnc4[nH]cc(C)c34)c2C1` next
Out: 861

In: And then CN(C)C/C=C/C(=O)N1Cc2c(-c3ccncc3)c(-c3ccc(F)cc3)nn2C(C(N)=O)C1 (racemic) , what is it?
Out: 57.4

###

- System: BA/F3 (insSVD) cells
- experiment_summary: Ba/F3-EGFR-insSVD cell survival assay (Cell Titer-Glo)
- Format: cell-based
- condition_details: Mus musculus, BaF3, 48 h, Table 3a, cell survival, Cell Titer-Glo, with 10 ng/ml EGF, without IL-3
readout_kind: IC50 (nM)
Provide only the numeric value, understood in nM.

In: Value lookup for IC50; key = `CC(C)N(C)C/C=C/C(=O)N1CCn2nc(-c3ccc(F)cc3)c(-c3ccnc(NC(=O)C4CC4)c3)c2C1`
Out: 22.3

In: Next up: `CN(C)C/C=C/C(=O)N1CCn2nc(-c3ccc(OC(F)F)cc3)c(-c3ccncc3)c2C1`
Out: 1490

In: And for `C=CC(=O)N1CCn2nc(-c3ccc(C(F)(F)F)cc3)c(-c3ccncc3)c2C1` ?
Out: 39

In: Cool, now `C=CC(=O)N1Cc2c(-c3ccnc4[nH]cc(C)c34)c(-c3cccc(C#N)c3)nn2C[C@@H]1C`
Out: 37.5
